Reported aptazyme ON/OFF ratio by item:
B1: Pistol ribozyme (parent)
chain: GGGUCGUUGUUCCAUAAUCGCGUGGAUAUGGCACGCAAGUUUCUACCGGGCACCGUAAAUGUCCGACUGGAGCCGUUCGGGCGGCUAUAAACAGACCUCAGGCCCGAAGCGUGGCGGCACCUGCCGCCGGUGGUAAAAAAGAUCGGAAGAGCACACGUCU

variants of: B1; assay: aptazyme ON/OFF ratio, guanine; higher = stronger switching; co-transcriptional cleavage with and without guanine

Please review the entries below; each comes with its answer.
INSERT INTO results (mutation_string, assay_result) VALUES
  ('U8G G9U U10C C12G C13A', 1.26),
  ('U7A U8A U11G C12G', 1.27),
  ('U7A G9U U10G U11C C13U', 1.05);

input: Consider the variant U8G U10A U11A C12A C13A and give its measured aptazyme ON/OFF ratio.
output: 1.19

input: Fill in: aptazyme ON/OFF ratio of U7A G9A U10C U11A C12U C13A is ___
output: 1.2

input: Look up aptazyme ON/OFF ratio: U7G U8G G9U U10A U11A C12A C13G
output: 1.13

input: Please report the recorded aptazyme ON/OFF ratio for U7G U8G G9U U10A C12G C13A .
output: 1.07

input: Quick one: aptazyme ON/OFF ratio for U8A U10A ?
output: 1.07

input: Return reported aptazyme ON/OFF ratio; argument: U7A U8G U10C U11G C13G
output: 1.07

input: Value lookup for aptazyme ON/OFF ratio; key = U7G U8C G9C U10A C12U
output: 1.06

input: For U8A G9A U10C U11A C13U , what is its reported aptazyme ON/OFF ratio?
output: 1.15

input: For the variant U7G U8A G9U U10G U11G C13G , what aptazyme ON/OFF ratio is on record?
output: 1.17

input: Name the recorded aptazyme ON/OFF ratio for U7G U8C U10C U11A C12A C13A .
output: 1.26

input: Which aptazyme ON/OFF ratio value belongs to U7G U8A U10C U11C C12U ?
output: 1.31

input: For the variant U8G U11C C13G , what aptazyme ON/OFF ratio is on record?
output: 1.17

input: Report aptazyme ON/OFF ratio for U7G U8C G9C U10G C12G please.
output: 1.12
